Cited source: PubChem BioAssay AID623956

Test system: E. coli recBCD-deleted + H. pylori AddAB/RecA, Hfr recombinant frequency
ASSAY OVERVIEW: Hfr recombinant frequency reduction – colony formation, p(addAB), p(recA), 20 µM, counter-screen for AddAB inhibitor project, late-stage follow-up (AID 623956)
CONDITION INFO: at 20 µM
The source made the active and inactive calls.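 Rule for the calls: active = at least 4-fold drop in recombinant frequency versus the solvent-only control; inactive = the rest.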
Choose one outcome from this list and give only that: active, inactive

Q: For `O=C(Nc1cccc(NC(=O)c2ccccc2Cl)c1)c1ccc([N+](=O)[O-])o1` , which call appears in the assay record?
Ans: inactive

Q: For `O=C(Nc1ccc(N2CCOCC2)cc1)c1ccc([N+](=O)[O-])o1` , which call appears in the assay record?
Ans: inactive

Q: For `Cc1cccnc1NC(=O)c1ccc([N+](=O)[O-])o1` , which call appears in the assay record?
Ans: inactive

Q: For `C=CCn1c(Sc2ncc([N+](=O)[O-])s2)n[nH]c1=O` , which call appears in the assay record?
Ans: inactive

Q: For `O=C(NCc1cccnc1)c1ccc([N+](=O)[O-])o1` , which call appears in the assay record?
Ans: inactive

Q: For `CC(=O)Nc1ccc2nc(NC(=O)c3ccc([N+](=O)[O-])o3)sc2c1` , which call appears in the assay record?
Ans: inactive

Q: For `NC(=O)c1ccsc1NC(=O)COC(=O)c1ccc([N+](=O)[O-])o1` , which call appears in the assay record?
Ans: inactive

Q: For `CCn1cc(C(=O)O)c(=O)c2cnc(N3CCN(C(=S)Nc4ccccc4C(F)(F)F)CC3)nc21` , which call appears in the assay record?
Ans: active

Q: For `O=C(Nc1ncccn1)c1ccc([N+](=O)[O-])o1` , which call appears in the assay record?
Ans: inactive

Q: For `O=C(OCC(=O)c1cccs1)c1ccc([N+](=O)[O-])o1` , which call appears in the assay record?
Ans: inactive

Q: For `Cc1ccc2nc(/C(C#N)=C\c3ccc([N+](=O)[O-])o3)[nH]c2c1` , which call appears in the assay record?
Ans: inactive
